test: Lipophilicity, n-octanol/PBS (pH 7.4) distribution coefficient; format: physicochemical; details: 177Lu-labelled peptide; n-octanol/PBS pH 7.4; read-out: logD7.4
measurement_name: logD
Please reply with the value in numeric form only.

// logD value for CCCC[C@H](NC(=O)[C@H](Cc1c[nH]c2ccccc12)NC(=O)CNC(=O)[C@H](Cc1ccc(O)cc1)NC(=O)[C@H](C)NC(=O)[C@@H](CCC(=O)O)NC(=O)[C@@H](CCC(=O)O)NC(=O)[C@@H](CCC(=O)O)NC(=O)[C@@H](CCC(=O)O)NC(=O)[C@@H](CCC(=O)O)NC(=O)[C@@H](CCC(=O)O)NC(=O)CN1CCN(CC(=O)O)CCN(CC(=O)O)CCN(CC(=O)O)CC1)C(=O)N[C@@H](CC(=O)O)C(=O)N[C@@H](Cc1ccccc1)C(N)=O [[nat/177Lu]Lu-DOTA-PP-F11N, metal not drawn, reference compound] : -4.75

====

assay: Biodistribution at 24 h p.i. in AR42J tumour-bearing CB17-SCID mice; format: in vivo; details: mouse, in vivo, 100 pmol, n = 4, mean ± SD, read-out: Biodistribution, Intestine
measurement_name: tissue uptake at 24 h (%ID/g)
Write down the numeric answer in %ID/g and omit the unit.

// tissue uptake at 24 h value for CCCC[C@H](NC(=O)[C@H](Cc1c[nH]c2ccccc12)NC(=O)CNC(=O)[C@H](Cc1ccc(O)cc1)NC(=O)[C@H](C)NC(=O)[C@@H](CCC(=O)O)NC(=O)[C@@H](CCC(=O)O)NC(=O)[C@@H](CCC(=O)O)NC(=O)[C@@H](CCC(=O)O)NC(=O)[C@@H](CCC(=O)O)NC(=O)[C@@H](CCC(=O)O)NC(=O)CN1CCN(CC(=O)O)CCN(CC(=O)O)CCN(CC(=O)O)CC1)C(=O)N[C@@H](CC(=O)O)C(=O)N[C@@H](Cc1ccccc1)C(N)=O [[nat/177Lu]Lu-DOTA-PP-F11N, metal not drawn, reference compound] : 0.04

====

experiment: Biodistribution at 24 h p.i. in AR42J tumour-bearing CB17-SCID mice; type: in vivo; conditions: mouse, in vivo, 100 pmol, n = 4, mean ± SD, AR42J tumour, read-out: Biodistribution, Tumour
measurement_name: tissue uptake at 24 h (%ID/g)
Write down the numeric answer in %ID/g and omit the unit.

// tissue uptake at 24 h value for CCCC[C@H](NC(=O)[C@H](Cc1c[nH]c2ccccc12)NC(=O)CNC(=O)[C@H](Cc1ccc(O)cc1)NC(=O)[C@H](C)NC(=O)[C@@H](CCC(=O)O)NC(=O)[C@@H](CCC(=O)O)NC(=O)[C@@H](CCC(=O)O)NC(=O)[C@@H](CCC(=O)O)NC(=O)[C@@H](CCC(=O)O)NC(=O)[C@@H](CCC(=O)O)NC(=O)CN1CCN(CC(=O)O)CCN(CC(=O)O)CCN(CC(=O)O)CC1)C(=O)N[C@@H](CC(=O)O)C(=O)N[C@@H](Cc1ccccc1)C(N)=O [[nat/177Lu]Lu-DOTA-PP-F11N, metal not drawn, reference compound] : 1.88

====

assay: Biodistribution at 24 h p.i. in AR42J tumour-bearing CB17-SCID mice; type: in vivo; details: mouse, in vivo, 100 pmol, n = 4, mean ± SD, read-out: Biodistribution, Liver
measurement_name: tissue uptake at 24 h (%ID/g)
Write down the numeric answer in %ID/g and omit the unit.

// tissue uptake at 24 h value for CCCC[C@H](NC(=O)[C@H](Cc1c[nH]c2ccccc12)NC(=O)CNC(=O)[C@H](Cc1ccc(O)cc1)NC(=O)[C@H](C)NC(=O)[C@@H](CCC(=O)O)NC(=O)[C@@H](CCC(=O)O)NC(=O)[C@@H](CCC(=O)O)NC(=O)[C@@H](CCC(=O)O)NC(=O)[C@@H](CCC(=O)O)NC(=O)[C@@H](CCC(=O)O)NC(=O)CN1CCN(CC(=O)O)CCN(CC(=O)O)CCN(CC(=O)O)CC1)C(=O)N[C@@H](CC(=O)O)C(=O)N[C@@H](Cc1ccccc1)C(N)=O [[nat/177Lu]Lu-DOTA-PP-F11N, metal not drawn, reference compound] : 0.67

====

assay: Biodistribution at 24 h p.i. in AR42J tumour-bearing CB17-SCID mice; assay type: in vivo; conditions: mouse, in vivo, 100 pmol, n = 4, mean ± SD, read-out: Biodistribution, Bone
measurement_name: tissue uptake at 24 h (%ID/g)
Write down the numeric answer in %ID/g and omit the unit.

// tissue uptake at 24 h value for CCCC[C@H](NC(=O)[C@H](Cc1c[nH]c2ccccc12)NC(=O)CNC(=O)[C@H](Cc1ccc(O)cc1)NC(=O)[C@H](C)NC(=O)[C@@H](CCC(=O)O)NC(=O)[C@@H](CCC(=O)O)NC(=O)[C@@H](CCC(=O)O)NC(=O)[C@@H](CCC(=O)O)NC(=O)[C@@H](CCC(=O)O)NC(=O)[C@@H](CCC(=O)O)NC(=O)CN1CCN(CC(=O)O)CCN(CC(=O)O)CCN(CC(=O)O)CC1)C(=O)N[C@@H](CC(=O)O)C(=O)N[C@@H](Cc1ccccc1)C(N)=O [[nat/177Lu]Lu-DOTA-PP-F11N, metal not drawn, reference compound] : 0.03
